Each entry below lists one item and its recorded Teratogenicity Potential (μM) O/C Ratio value.
test system: WA09 hES cells; test: Phase 2 targeted biomarker assay, ornithine/cystine ratio, 9-point dose response; settings: human, 72 h
Reply with just the number (in µM).

| compound | readoutLabel | measurementUnit | measuredValue |
| --- | --- | --- | --- |
| O=C1NC(=O)C(c2ccccc2)(c2ccccc2)N1 | Teratogenicity Potential (μM) O/C Ratio | µM | 263.3 |
| CCC(=O)NCC[C@@H]1CCc2ccc3c(c21)CCO3 | Teratogenicity Potential (μM) O/C Ratio | µM | 34 |
| NNC(=O)c1ccncc1 | Teratogenicity Potential (μM) O/C Ratio | µM | 165.4 |

response.value for "CCN(CC)C(=O)/C(C#N)=C/c1cc(O)c(O)c([N+](=O)[O-])c1" (field: Teratogenicity Potential (μM) O/C Ratio) = 6.7

Record "Nc1nc(NC2CC2)c2ncn([C@H]3C=C[C@@H](CO)C3)c2n1" , field Teratogenicity Potential (μM) O/C Ratio: 95.1

Data point: CC1=C(/C=C/C(C)=C/C=C/C(C)=C/C(=O)O)C(C)(C)CCC1 [All-trans Retinoic Acid] ; Teratogenicity Potential (μM) O/C Ratio = 0.00004
